This collection of values is drawn from ChEMBL document CHEMBL1146225.

System: Mycobacterium tuberculosis
experiment_description: Antitubercular activity against Mycobacterium tuberculosis SS1
Assay type: functional
Would you kindly list MIC90 for each of these molecules?

MIC90 for `CCCn1cc(C(=O)O)c(=O)c2ccc3c(nnn3C)c21` is 1.6 µg/mL

MIC90 for `CCOC(=O)c1cn(Cc2ccccc2)c2c(ccc3c2nnn3C)c1=O` is > 32 µg/mL

MIC90 for `Cn1nnc2c3c(ccc21)c(=O)c(C(=O)O)cn3Cc1ccccc1` is > 32 µg/mL

MIC90 for `CCCn1cc(C(=O)OCC)c(=O)c2ccc3c(nnn3C)c21` is > 32 µg/mL

MIC90 for `CCOC(=O)c1cn(Cc2ccc(Br)cc2)c2c(ccc3c2nnn3C)c1=O` is > 32 µg/mL

MIC90 for `Cn1nnc2c3c(ccc21)c(=O)c(C(=O)O)cn3Cc1ccc(Br)cc1` is > 32 µg/mL

MIC90 for `CO[C@H]1/C=C/O[C@@]2(C)Oc3c(C)c(O)c4c(O)c(c(/C=N/N5CCN(C)CC5)c(O)c4c3C2=O)NC(=O)/C(C)=C\C=C\[C@H](C)[C@H](O)[C@@H](C)[C@@H](O)[C@@H](C)[C@H](OC(C)=O)[C@@H]1C` is > 4 µg/mL

MIC90 for `CCOC(=O)c1cn(CCc2ccccc2)c2c(ccc3c2nnn3C)c1=O` is > 32 µg/mL

MIC90 for `CCOC(=O)c1cn(C)c2c(ccc3c2nnn3C)c1=O` is 0.5 µg/mL

----------
experiment_description: Cytotoxicity against human Hep2 cells
Assay type: cell-based, HEp-2
metric: CC50

CC50 for `CCCCn1cc(C(=O)OCC)c(=O)c2ccc3c(nnn3C)c21` is > 50 µg/mL

----------
experiment_description: Cytotoxicity against human J774A1
Type: cell-based, J774.A1
settings: J774A1 cells
metric: CC50

CC50 for `CCCCn1cc(C(=O)OCC)c(=O)c2ccc3c(nnn3C)c21` is > 50 µg/mL

----------
System: Mycobacterium tuberculosis
experiment_description: Antitubercular activity against Mycobacterium tuberculosis SS2
Format: functional
Would you kindly list MIC90 for each of these compounds?
State just the number; it will be interpreted in µg/mL.

MIC90 for `CCn1cc(C(=O)O)c(=O)c2ccc3c(nnn3C)c21` is 0.8

MIC90 for `Cn1nnc2c3c(ccc21)c(=O)c(C(=O)O)cn3CCc1ccccc1` is 0.8

MIC90 for `Cn1cc(C(=O)O)c(=O)c2ccc3c(nnn3C)c21` is 0.5

----------
Would you kindly list MIC90 for each of these compounds?
System: Mycobacterium tuberculosis
experiment_description: Antitubercular activity against Mycobacterium tuberculosis SS5
Format: functional

MIC90 for `C=CCn1cc(C(=O)O)c(=O)c2ccc3c(nnn3C)c21` is > 32 µg/mL

MIC90 for `C=CCn1cc(C(=O)OCC)c(=O)c2ccc3c(nnn3C)c21` is > 32 µg/mL

MIC90 for `CCCn1cc(C(=O)OCC)c(=O)c2ccc3c(nnn3C)c21` is > 32 µg/mL

MIC90 for `CCOC(=O)c1cn(Cc2ccc(Br)cc2)c2c(ccc3c2nnn3C)c1=O` is > 32 µg/mL

MIC90 for `CCn1cc(C(=O)O)c(=O)c2ccc3c(nnn3C)c21` is 1.6 µg/mL

MIC90 for `CCCCn1cc(C(=O)O)c(=O)c2ccc3c(nnn3C)c21` is > 32 µg/mL

MIC90 for `CCOC(=O)c1cn(CCc2ccccc2)c2c(ccc3c2nnn3C)c1=O` is > 32 µg/mL

MIC90 for `CCCCn1cc(C(=O)OCC)c(=O)c2ccc3c(nnn3C)c21` is 0.5 µg/mL

MIC90 for `CO[C@H]1/C=C/O[C@@]2(C)Oc3c(C)c(O)c4c(O)c(c(/C=N/N5CCN(C)CC5)c(O)c4c3C2=O)NC(=O)/C(C)=C\C=C\[C@H](C)[C@H](O)[C@@H](C)[C@@H](O)[C@@H](C)[C@H](OC(C)=O)[C@@H]1C` is 0.5 µg/mL

MIC90 for `Cc1ccc(Cn2cc(C(=O)O)c(=O)c3ccc4c(nnn4C)c32)cc1` is > 32 µg/mL

MIC90 for `CCOC(=O)c1cn(C)c2c(ccc3c2nnn3C)c1=O` is 0.5 µg/mL

MIC90 for `CCOC(=O)c1cn(Cc2ccccc2)c2c(ccc3c2nnn3C)c1=O` is > 32 µg/mL

MIC90 for `Cn1cc(C(=O)O)c(=O)c2ccc3c(nnn3C)c21` is 0.5 µg/mL

MIC90 for `Cn1nnc2c3c(ccc21)c(=O)c(C(=O)O)cn3Cc1ccc(Br)cc1` is > 32 µg/mL

MIC90 for `CCCn1cc(C(=O)O)c(=O)c2ccc3c(nnn3C)c21` is 3.2 µg/mL

MIC90 for `CCOC(=O)c1cn(Cc2ccc(C)cc2)c2c(ccc3c2nnn3C)c1=O` is > 32 µg/mL

MIC90 for `Cn1nnc2c3c(ccc21)c(=O)c(C(=O)O)cn3Cc1ccccc1` is > 32 µg/mL

MIC90 for `Cn1nnc2c3c(ccc21)c(=O)c(C(=O)O)cn3CCc1ccccc1` is 3.2 µg/mL
